- tested_on: T1, KdpE DBD (KdpEDBD) (Escherichia coli str. K-12 substr. …, UniProt P21866 124-225)
- T1 sequence: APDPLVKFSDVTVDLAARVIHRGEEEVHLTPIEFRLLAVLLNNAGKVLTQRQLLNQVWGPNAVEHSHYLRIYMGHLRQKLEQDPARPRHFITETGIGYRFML
- assay: AUC sedimentation equilibrium; S2 half-site only, 1:1, AB model; AUC: 50 mM HEPES pH 7.4, 150 mM KCl, 1 mM EDTA, 20 C, DNA 0.5 uM in SV; EMSA: 10 mM Tris pH 8.0, 50 mM NaCl, 5% glycerol, 0.1% Triton X-100, 10 mM DTT, 1 mM EDT
- measurement_setup: protein: recombinant; tags: N-terminal His-tag removed with TEV; chain copies: 2; blunt
endpoint: pKd
Expect pKd as a plain number equal to -log10 of the molar concentration.

Entry kdpFABCBS-1 (dsDNA) DNA 1: CATTCCTATACTTTTTTTACACCCCGCCCG DNA 2: CGGGCGGGGTGTAAAAAAAGTATAGGAATG ; pKd = 6.70
